Kindly state pEC50 for each of the entries shown.
# Assayed system: rat MOR (Rattus norvegicus, UniProt P33535)
# Construct: membranes
# Sequence (P33535 whole entry): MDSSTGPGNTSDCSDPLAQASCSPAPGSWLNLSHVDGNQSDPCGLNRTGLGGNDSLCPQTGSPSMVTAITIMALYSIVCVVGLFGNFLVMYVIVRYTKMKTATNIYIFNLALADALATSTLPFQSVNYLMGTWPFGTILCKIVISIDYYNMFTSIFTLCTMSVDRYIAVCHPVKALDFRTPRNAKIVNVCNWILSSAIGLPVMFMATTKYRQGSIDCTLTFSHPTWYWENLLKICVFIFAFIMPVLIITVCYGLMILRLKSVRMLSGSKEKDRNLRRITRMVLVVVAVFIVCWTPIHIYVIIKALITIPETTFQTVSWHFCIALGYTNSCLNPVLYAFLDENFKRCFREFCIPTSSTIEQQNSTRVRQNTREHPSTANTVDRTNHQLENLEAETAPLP
# Assay overview: Stimulation of [35S]GTPγS binding, C6 glioma cell membranes expressing MOR
Please treat pEC50 as minus the base-10 logarithm of the molar concentration.

Problem: pEC50 lookup needed for O=C1CCC2C3Cc4ccc(O)c5c4[C@@]2(CCN3CCc2ccccc2F)[C@H]1O5 (some centres unmarked) [Compound 2g] , thanks.
Solution: 8.68

Problem: // repeat for O=C1CCC2C3Cc4ccc(O)c5c4[C@@]2(CCN3CCc2ccc([N+](=O)[O-])cc2)[C@H]1O5 (some centres unmarked) [Compound 2a] and report
Solution: 8.72

Problem: // repeat for Cc1ccc(CCN2CC[C@]34c5c6ccc(O)c5O[C@H]3C(=O)CCC4C2C6)cc1 (some centres unmarked) [Compound 2c] and report
Solution: 8.72

Problem: // repeat for O=C1CCC2C3Cc4ccc(O)c5c4[C@@]2(CCN3CCc2ccc(Cl)cc2)[C@H]1O5 (some centres unmarked) [Compound 2i] and report
Solution: 8.70

Problem: // repeat for O=C1CCC2C3Cc4ccc(O)c5c4[C@@]2(CCN3CCc2ccc(C(F)(F)F)cc2)[C@H]1O5 (some centres unmarked) [Compound 2h] and report
Solution: 8.47

Problem: // repeat for N#CCN1CC[C@]23c4c5ccc(O)c4O[C@H]2C(=O)CCC3C1C5 (some centres unmarked) [Compound 1a] and report
Solution: 6.37

Problem: // repeat for O=C1CCC2C3Cc4ccc(O)c5c4[C@@]2(CCN3CCc2cccc(F)c2)[C@H]1O5 (some centres unmarked) [Compound 2f] and report
Solution: 8.62

Problem: // repeat for O=C1CCC2C3Cc4ccc(O)c5c4[C@@]2(CCN3CCc2ccc(F)cc2)[C@H]1O5 (some centres unmarked) [Compound 2e] and report
Solution: 8.60

Cited source for all entries: paper PMC7321161
